From: patent US12516053B2

target-or-test-system: recombinant human Bcl-2-G101V protein (Homo sapiens, UniProt P10415, G101V)
procedure-details: Bcl-2-G101V TR-FRET assay
Type: binding
particulars: TR-FRET, 0.1 nM Bcl-2-G101V, FITC labeled Bak peptide 5 nM; read-out: Biochemical assay (IC50, nM) Bcl-2 G101V
experimental-endpoint: IC50 (nM)

CC(C)c1ccccc1[C@@H]1CCCN1C1CC2(C1)CN(c1ccc(C(=O)NS(=O)(=O)c3ccc(NC[C@H]4CC[C@](C)(O)CC4)c([N+](=O)[O-])c3)c(N3CCOc4nc5[nH]ccc5cc43)c1)C2 | 2.8
CC(C)c1ccccc1[C@@H]1CCCN1C1CC2(CCN(c3ccc(C(=O)NS(=O)(=O)c4ccc(NC[C@H]5CC[C@](C)(O)CC5)c([N+](=O)[O-])c4)c(N4CCCOc5nc6[nH]ccc6cc54)c3)CC2)C1 | 1.9
CC(C)c1ccccc1[C@@H]1CCCN1C1CC2(CCN(c3ccc(C(=O)NS(=O)(=O)c4ccc(NCC5(F)CCOCC5)c([N+](=O)[O-])c4)c(N4CCOc5nc6[nH]ccc6cc54)c3)CC2)C1 | 1.2
